molecular target: Virion infectivity factor (Human immunodeficiency virus type 1 group M subtype B (isolate BH10)) + Virion infectivity factor (Human immunodeficiency virus type 1 group M subtype B (isolate BRU/LAI)) + Virion infectivity factor (Human immunodeficiency virus type 1 group M subtype B (isolate PCV12)) + Virion infectivity factor (Human immunodeficiency virus type 1 group M subtype B (isolate HXB2)) + DNA dC->dU-editing enzyme APOBEC-3G (Homo sapiens) (UniProt P69720+P69721+P69722+P69723+Q9HC16); test: inhibitors of Vif binding to APOBEC3G peptide, primary screen, biochemical, TR-FRET, GST-Vif 1-94, biotin-A3G peptide, dose response retest (AID 1117319); settings: active compounds read high;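 note: Vif residues 1-94 fused to GST binding biotinylated APOBEC3G peptide 110-148; 0% = full assay without inhibitor and 100% = GST in place of GST-Vif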
The whole screen tested about 260,000 compounds, of which about 1,500 (0.58%) were called active. Inconclusive results (about 5%) are left out. Only a sample is shown. Entries with a potency or affinity are not part of this list.
observed-property: inhibition (%)

>>> reported_result("Cc1c(NC(=O)c2cc(-c3ccccc3)on2)c(=O)n(-c2ccccc2)n1C")
-2.53
>>> reported_result("Cc1ccc2nc(N3CCN(C)CC3)c(C#N)cc2c1")
1.03
>>> reported_result("Cc1ccc2cc(C#N)c(N3CCN(C)CC3)nc2c1")
3.3
>>> reported_result("COc1ccc(-c2cc(C(=O)Nc3c(C)n(C)n(-c4ccccc4)c3=O)no2)cc1")
-3.59
>>> reported_result("Cn1nnc(NC(=O)/C=C/c2ccco2)n1")
11.5
>>> reported_result("O=C1CCCc2c1sc1nc3n(c(=O)c21)CCCCC3")
2.33
>>> reported_result("COc1cc(/C=C2\\SC(=O)N(CCNC(=O)c3c(C)noc3C)C2=O)cc(OC)c1OC")
-5.96
>>> reported_result("CC(=O)Nc1cccc(NC(=O)COc2ccccc2C)c1")
-7.35
>>> reported_result("Cc1ccc(C(=O)NC(=S)Nc2cccc(-c3nc4ccccc4s3)c2)cc1")
9.8
>>> reported_result("CCC(OC(=O)c1nsc(Cl)c1Cl)C(=O)NC(C)(C)CC (stereo not drawn)")
-6.48
>>> reported_result("O=C(NNS(=O)(=O)c1ccccc1)c1ccc(O)cc1")
12.2
>>> reported_result("O=C(CN(Cc1ccc(F)cc1)C(=O)CNS(=O)(=O)c1ccccc1)NCc1ccco1")
-1.61
>>> reported_result("O=C(c1ccco1)N1CCN(C(=O)C2Cc3ccccc3CN2S(=O)(=O)c2ccc(F)cc2)CC1 (stereo not drawn)")
-4.72
>>> reported_result("CCN(CC)Cc1cc(C(C)=O)ccc1O")
1.01
>>> reported_result("CCc1oc(C(=O)O)cc1CN(CC)CC")
19
>>> reported_result("COc1ccc(-c2cc(C(=O)Nc3c(C)n(C)n(-c4ccccc4)c3=O)no2)cc1OC")
-4.54
>>> reported_result("Cc1ccc(/C=C2\\CCC3=C2OC(N)=C(C#N)C3c2ccc(C)cc2)cc1 (stereo not drawn)")
20.9
>>> reported_result("COC(=O)C(=C/C=C/c1ccco1)C(=O)OC")
32.7
>>> reported_result("N#CC1=C2C=Cc3ccccc3N2CCCC1=O")
6.87
>>> reported_result("CCOc1ccc(NC(c2ccccc2)P(=O)(OC)OC)cc1 (stereo not drawn)")
5.04
>>> reported_result("COc1cccc(C(=O)N[C@@H](CCSC)c2nc3ccccc3[nH]2)c1")
5.58
>>> reported_result("CC(C)N=C1NN=C(c2cccs2)C(CC(=O)O)S1 (stereo not drawn)")
1.51
>>> reported_result("CN(C)S(=O)(=O)c1ccc(C(=O)Nc2nnc(-c3cccs3)o2)cc1")
27.3
